# Test system: biotinyl-Val-oxazolone
# protocol: self-aminoacylation, catalytic enhancement (BVO) (fold over background); higher = more active; k-Seq, kA / k0A0; sequences stand for … in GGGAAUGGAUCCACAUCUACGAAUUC…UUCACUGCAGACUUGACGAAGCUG
Fewer inactive variants are shown than the library holds.
Hi there, I'd appreciate the recorded self-aminoacylation for every entry that follows.
Answers are plain numbers.

Examples with answers:
>>> quantitativeresult("CCGCACUUCAAUCAAUCGGUC [Fam1B.1 aminoacylation ribozyme variant]")
1.62
>>> quantitativeresult("CGACACUUCAAGCAAUCGGGC [Fam1B.1 aminoacylation ribozyme variant]")
2.43
>>> quantitativeresult("AAGUUUGCUAAUCGUCGGAAG [Fam3.1 aminoacylation ribozyme variant]")
0.869

Please state self-aminoacylation for every sequence in the list that follows.
1. AUUAUCCUGGUCAUUGAGUGA [Fam2.1 aminoacylation ribozyme variant]
2. AUUACCCUGGUCAUCGCGUGG [Fam2.1 aminoacylation ribozyme variant]
3. GUACUUCAAACAAUCGAUCUG [Fam1A.1 aminoacylation ribozyme variant]
4. CAACACUUCAACCAAUCGGUC [Fam1B.1 aminoacylation ribozyme variant]

Solution:
[5.05, 3.14, 0.987, 1.36]

* * *

# Test system: biotinyl-Trp-oxazolone
# protocol: self-aminoacylation, catalytic enhancement (BWO) (fold over background); higher = more active; k-Seq, kA / k0A0; sequences stand for … in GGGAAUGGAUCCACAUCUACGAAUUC…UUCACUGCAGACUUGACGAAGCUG
Fewer inactive variants are shown than the library holds.
Hi there, I'd appreciate the recorded self-aminoacylation for every entry that follows.
Give bare numbers.

>>> quantitativeresult("CCACACUUUAAGAAAUCGGUC [Fam1B.1 aminoacylation ribozyme variant]")
0.727
>>> quantitativeresult("CUAGUGCAAACAAUCGGUCUG [Fam1A.1 aminoacylation ribozyme variant]")
0.9
>>> quantitativeresult("CCCCACUUCAAGUAAUCGGUC [Fam1B.1 aminoacylation ribozyme variant]")
14.2

Here's the next entry for you.
Exercise: Provide one value: measured self-aminoacylation of AAGUUUGCUAUUAGGCGCAAG [Fam3.1 aminoacylation ribozyme variant]
Solution: 0.841

* * *

Hi there, I'd appreciate the recorded self-aminoacylation for every entry that follows.
# Tested on: biotinyl-Ile-oxazolone
# protocol: self-aminoacylation, catalytic enhancement (BIO) (fold over background); higher = more active; k-Seq, kA / k0A0; sequences stand for … in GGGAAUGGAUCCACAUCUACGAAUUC…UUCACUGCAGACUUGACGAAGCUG
Fewer inactive variants are shown than the library holds.
One number for each entry.

>>> quantitativeresult("AUUCCCCUAGGUCAUCGGGUG [Fam2.2 aminoacylation ribozyme variant]")
14.9

Please state self-aminoacylation for every sequence in the list that follows.
1. CUACUCCAAACAAACGGUCUG [Fam1A.1 aminoacylation ribozyme variant]
2. CUACUUCAAAAAAUCUGUCUG [Fam1A.1 aminoacylation ribozyme variant]

Solution:
0.816
0.84

Exercise: Provide one value: measured self-aminoacylation of CCACACUUCAAGCAGUAGGUC [Fam1B.1 aminoacylation ribozyme variant]
Solution: 0.633

* * *

# System: biotinyl-Trp-oxazolone
# protocol: self-aminoacylation, catalytic enhancement (BWO) (fold over background); higher = more active; k-Seq, kA / k0A0; sequences stand for … in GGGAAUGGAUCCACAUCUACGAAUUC…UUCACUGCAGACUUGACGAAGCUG
This sample holds only a part of the variants without activity.
measuredParameter: self-aminoacylation
One number for each entry.

Examples with answers:
>>> quantitativeresult("AUUACCCUGGUCAUCCAGUUA [Fam2.1 aminoacylation ribozyme variant]")
0.433
>>> quantitativeresult("CCACACUUCAAGCAAUCGUUG [Fam1B.1 aminoacylation ribozyme variant]")
1.15
>>> quantitativeresult("AUUACCAUGGUCAUCGAGUAA [Fam2.1 aminoacylation ribozyme variant]")
1.28

Exercise: Provide one value: measured self-aminoacylation of CCACACUUCAUUCAAUCGGUC [Fam1B.1 aminoacylation ribozyme variant]
Solution: 0.495

* * *

Hi there, I'd appreciate the recorded self-aminoacylation for every entry that follows.
# System: biotinyl-Ile-oxazolone
# protocol: self-aminoacylation, catalytic enhancement (BIO) (fold over background); higher = more active; k-Seq, kA / k0A0; sequences stand for … in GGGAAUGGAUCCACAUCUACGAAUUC…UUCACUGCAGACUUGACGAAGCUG
Fewer inactive variants are shown than the library holds.

Examples with answers:
>>> result("AUUACCCUGGACAUCGAGCGA [Fam2.1 aminoacylation ribozyme variant]")
1.24
>>> result("UUACUUCAAACAAUCGGUGUG [Fam1A.1 aminoacylation ribozyme variant]")
1.51
>>> result("CCACGCUUCAAGCGAUCGGUC [Fam1B.1 aminoacylation ribozyme variant]")
0.888
>>> result("UUUACCCUGGUCAUCGAGUUA [Fam2.1 aminoacylation ribozyme variant]")
3.03
>>> result("AUUCACCUAGGAUAUCGGGUG [Fam2.2 aminoacylation ribozyme variant]")
3.31

Please state self-aminoacylation for every sequence in the list that follows.
1. UCACAUUUCAAGCAAUCGGUC [Fam1B.1 aminoacylation ribozyme variant]
2. CUACUUCAAACAACCGGUCUU [Fam1A.1 aminoacylation ribozyme variant]
3. CUACUUCGAACAAACGGUCUG [Fam1A.1 aminoacylation ribozyme variant]
4. UUUAACCUGGUCAUCGAGUGA [Fam2.1 aminoacylation ribozyme variant]
5. CUGCUUCAAACAAGCGGUCUG [Fam1A.1 aminoacylation ribozyme variant]

Solution:
[1.04, 1.32, 0.709, 4.01, 0.718]

Please state self-aminoacylation for every sequence in the list that follows.
1. AAGUUUGCUAGUAGUCCCAAG [Fam3.1 aminoacylation ribozyme variant]
2. AUUCACUUAGGUCAUCGAGUG [Fam2.2 aminoacylation ribozyme variant]
3. CUACUUUAAACAAUCGGACUG [Fam1A.1 aminoacylation ribozyme variant]
4. AUUGACCUAGGACAUCGGGUG [Fam2.2 aminoacylation ribozyme variant]
5. AAGUUUGCUAAAGGUCGCAAG [Fam3.1 aminoacylation ribozyme variant]
6. AUGACCCUGGUCAUCGAGUGU [Fam2.1 aminoacylation ribozyme variant]
7. CUAGUGCAAACAAUCGGUCUG [Fam1A.1 aminoacylation ribozyme variant]

Solution:
[1.01, 1.68, 0.901, 3.72, 0.687, 20.6, 0.998]

Exercise: Provide one value: measured self-aminoacylation of AUUACCCUGGUCAUGGAGUUA [Fam2.1 aminoacylation ribozyme variant]
Solution: 1.04

* * *

# Test system: biotinyl-Ile-oxazolone
# protocol: self-aminoacylation, catalytic enhancement (BIO) (fold over background); higher = more active; k-Seq, kA / k0A0; sequences stand for … in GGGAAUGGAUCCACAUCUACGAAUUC…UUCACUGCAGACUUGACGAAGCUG
Fewer inactive variants are shown than the library holds.
Think of 1 as a floor: if self-aminoacylation stands on it or above, it is TRUE; beneath it, FALSE.

See these solved cases before continuing.
>>> classassignment("AUGUUUGAUAAUAGUCGCAAG [Fam3.1 aminoacylation ribozyme variant]")
"TRUE"
>>> classassignment("AUUCACCUAGGUUAGCGGGUG [Fam2.2 aminoacylation ribozyme variant]")
"TRUE"
>>> classassignment("GCACACUGCAAGCAAUCGGUC [Fam1B.1 aminoacylation ribozyme variant]")
"TRUE"
>>> classassignment("CCACACUUCAAACAAUCGGUA [Fam1B.1 aminoacylation ribozyme variant]")
"FALSE"
>>> classassignment("AAGUGUGCUGAUAGUCGCAAG [Fam3.1 aminoacylation ribozyme variant]")
"TRUE"

Exercise: Is the recorded value of self-aminoacylation equal to or greater than 1 for this sequence? AUUACCUUGGUCUUCGAGUGA [Fam2.1 aminoacylation ribozyme variant]
Solution: TRUE

Exercise: Is the recorded value of self-aminoacylation equal to or greater than 1 for this sequence? CCACACUUCAAGCCAUCUGUC [Fam1B.1 aminoacylation ribozyme variant]
Solution: FALSE

Exercise: Is the recorded value of self-aminoacylation equal to or greater than 1 for this sequence? AUUGACCUAAGUCAUCGGGUG [Fam2.2 aminoacylation ribozyme variant]
Solution: TRUE

Exercise: Is the recorded value of self-aminoacylation equal to or greater than 1 for this sequence? CCACACUCCAAGCAAUCGGUA [Fam1B.1 aminoacylation ribozyme variant]
Solution: TRUE

Exercise: Is the recorded value of self-aminoacylation equal to or greater than 1 for this sequence? CCAAACUUCAAGCAAUAGGUC [Fam1B.1 aminoacylation ribozyme variant]
Solution: FALSE

Exercise: Is the recorded value of self-aminoacylation equal to or greater than 1 for this sequence? CGACUUAAAACAAUCGGUCUG [Fam1A.1 aminoacylation ribozyme variant]
Solution: TRUE

* * *

# Tested on: biotinyl-Val-oxazolone
# protocol: self-aminoacylation, catalytic enhancement (BVO) (fold over background); higher = more active; k-Seq, kA / k0A0; sequences stand for … in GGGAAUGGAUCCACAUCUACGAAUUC…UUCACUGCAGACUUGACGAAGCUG
This sample holds only a part of the variants without activity.
measuredParameter: self-aminoacylation
One number for each entry.

>>> quantitativeresult("CUCCUUCAAACAAUCGGUCGG [Fam1A.1 aminoacylation ribozyme variant]")
1.33
>>> quantitativeresult("AAGUUUGCUAAUUGUCGCUAG [Fam3.1 aminoacylation ribozyme variant]")
1.02
>>> quantitativeresult("AUUCACUUAAGUCAUCGGGUG [Fam2.2 aminoacylation ribozyme variant]")
5.11
>>> quantitativeresult("CUUCUUCAAACAAUCUGUCUG [Fam1A.1 aminoacylation ribozyme variant]")
0.698
>>> quantitativeresult("AUAACCCUGAUCAUCGAGUGA [Fam2.1 aminoacylation ribozyme variant]")
3.27

Please state self-aminoacylation for every sequence in the list that follows.
1. AUUACACUGGUCAUCGAGUCA [Fam2.1 aminoacylation ribozyme variant]
2. AUUCACCUAGGUCAUCAGAUG [Fam2.2 aminoacylation ribozyme variant]

Solution:
0.83
0.872
